The following compounds are listed with their measured concentration at 1 h values.
experiment: in vivo; conditions: female, BALB/c, mouse, Oral bioavail. (plasma concentration, 1 hour following 10 mg/kg p.o.)

Mol smiles	concentration at 1 h
CNc1cc(Nc2cnc(C#N)c(O[C@H](C)CN(C)C)n2)ncc1C1CC1	≥ 10 nM

Could you now look at the following compound, please?
Q: For the compound `CNc1cc(Nc2cnc(C#N)c(O[C@H]3CCN(C)C3)n2)ncc1-c1cnn(C)c1` , give its measured concentration at 1 h value.
A: ≥ 10 nM

Ref: patent US9403797B2
